Each recorded value in this set is attributed to PubChem BioAssay (NCI).

Kindly state growth for each of the entries shown.
Test system: PC-3 prostate
assay remarks: NCI-60 one-dose screen, 48 h (100 = growth as untreated, 0 = no growth, -100 = all killed)
recorded conditions: 10 µM unless noted
This is part of a sample that, as a whole, favours compounds with a hit. Of some 83,000 tested, about 20% had one in any assay.
Numbers only, in %.

compound	growth (%)
CCOC(=O)c1ccc2nc(-c3c(C)nn(-c4ccccc4)c3N3CCOCC3)[nH]c2c1	86.9
O=C1NC(=O)C(Cc2ccc(OCc3ccc(-c4cc(F)c(F)c(F)c4)cc3)cc2)S1 (centres undefined)	71.4
CCOC(=O)n1cc(C2=C(c3ccc(OC)c(OC)c3)COC2=O)c2ccccc21	12
NNC(=O)c1ccc(C(=O)NN)cc1	114
Cn1cc(-c2nnc(-c3cn(C)c4ncccc34)o2)c2ccccc21	39.8

Look up growth for the entries below, preserving their order.
1. Cc1nn(-c2ccccc2)c(N2CCOCC2)c1-c1nc2ccc([N+](=O)[O-])cc2[nH]1
2. COc1ccc(C2CC(c3cc(OC)c(OC)c(OC)c3)=NN2C(C)=O)cc1OCC(=O)Nc1nc2ccc(C(F)(F)F)cc2s1 (centres undefined)
3. CC(C)[C@H]1COC(=O)N1[C@@H]1C(=O)N([C@@H](CCC(=O)N2CCN(C3CCCC3)CC2)C(=O)N[C@@H]2CCCc3ccccc32)[C@@H]1/C=C/c1cccc(Cl)c1
4. Cc1cc(SC#N)ncn1

1. 112
2. 67.8
3. 25.7
4. 107

---

Tested on: SK-MEL-5 melanoma
assay remarks: NCI-60 one-dose screen, 48 h
recorded conditions: 10 µM unless noted
About 83,000 compounds went through this panel and 20% of them were active in at least one assay; those are over-represented in the sample as a whole. The source made the active and inactive calls. The calls were made as follows: active = growth percent below 10; inactive = the rest.
Outcomes you can answer with include only these: true (1) (active), false (0) (inactive)

Reference set (5 entries):
molecule	class assignment
COc1ccc(-c2cc(-c3ccc(Cl)cc3)nc(SCCCCCCC(=O)NO)n2)cc1	true (1)
CC[C@@](C)(NC(=O)[C@H](C)NC(=O)CCNC(=O)C(C)(C)NC(=O)[C@H](C)NC(=O)[C@@H]1CCCN1C(=O)[C@@](C)(CC)NC(=O)[C@H](Cc1ccccc1)NC(=O)C1CCCN1C(=O)C(C)(C)NC(=O)C1CCCN1C(=O)C(C)(C)NC(C)=O)C(=O)NCCC(=O)N[C@@H](CC(C)C)C(=O)NC(C)(C)C(=O)NCCC(=O)N[C@@H](CC(C)C)C(=O)NC(C)(C)C(=O)NC(C)(C)C(=O)N[C@@H](CC(C)C)C(=O)NCCC(=O)NCO (some centres not stated)	true (1)
COc1cc2c(cc1OC(C)=O)C(=O)CCCC2	false (0)
COC(=O)c1c(C)[nH]c(/C=C2\N=C(c3ccc[nH]3)C=C2OC)c1C	true (1)
O=C1/C(=C/c2cccc(OCc3ccccc3)c2)Oc2cc(OCCN3CCCCC3)ccc21	false (0)

Which outcome was assigned to CC(C)C1=NOC(=O)C1=Cc1cn(-c2ccccc2)nc1-c1cccc([N+](=O)[O-])c1 in this test?
false (0)

What do you get for C=C(C)[C@@H]1CC[C@]2(C)[C@H](CC[C@@H]3[C@@H]([C@@](C)(O)CCC=C(C)C)CC[C@]32C)[C@@]1(C)CCC(=O)N1CCN(C)CC1 ?
true (1)

What do you get for Nc1cc(NN=C(c2ccc(O)cc2)c2ccc(O)cc2)c([N+](=O)[O-])cc1[N+](=O)[O-] ?
true (1)

What do you get for O=C(O)CSCc1nnc2n(Cc3ccccc3)c(=O)c3c4c(sc3n12)CCCC4 ?
false (0)

What do you get for C=CCCCCCCCCC(=O)OC(C)C ?
false (0)
